# ASSAY_NOTES: Vorinostat serum pharmacokinetics
# Assay type: in vivo, human
# DETAILS: human, serum, po, 300 mg, Tmax, vorinostat 300 mg PO BID, Day 5 (with FOLFOX), serum, mean
EXPERIMENTAL_READOUT: Tmax (h)

compound="O=C(CCCCCCC(=O)Nc1ccccc1)NO [vorinostat, Suberoylanilide Hydroxamic Acid]" reading_unit=h test_result=2.4

###

# ASSAY_NOTES: Vorinostat serum pharmacokinetics
# Type: in vivo, human
# DETAILS: human, serum, po, 200 mg, Cmax, vorinostat 200 mg PO BID, Day 5 (with FOLFOX), serum, mean
EXPERIMENTAL_READOUT: Cmax (nM)

molecule="O=C(CCCCCCC(=O)Nc1ccccc1)NO [vorinostat, Suberoylanilide Hydroxamic Acid]" experimental_readout=Cmax reading_unit=nM test_result=894
